Below, each entry is listed alongside its reported pIC50.
Tested Target: Leucine-rich repeat serine/threonine-protein kinase 2 (Homo sapiens)
Sequence (Q5S007 whole entry, the tested form may be a part): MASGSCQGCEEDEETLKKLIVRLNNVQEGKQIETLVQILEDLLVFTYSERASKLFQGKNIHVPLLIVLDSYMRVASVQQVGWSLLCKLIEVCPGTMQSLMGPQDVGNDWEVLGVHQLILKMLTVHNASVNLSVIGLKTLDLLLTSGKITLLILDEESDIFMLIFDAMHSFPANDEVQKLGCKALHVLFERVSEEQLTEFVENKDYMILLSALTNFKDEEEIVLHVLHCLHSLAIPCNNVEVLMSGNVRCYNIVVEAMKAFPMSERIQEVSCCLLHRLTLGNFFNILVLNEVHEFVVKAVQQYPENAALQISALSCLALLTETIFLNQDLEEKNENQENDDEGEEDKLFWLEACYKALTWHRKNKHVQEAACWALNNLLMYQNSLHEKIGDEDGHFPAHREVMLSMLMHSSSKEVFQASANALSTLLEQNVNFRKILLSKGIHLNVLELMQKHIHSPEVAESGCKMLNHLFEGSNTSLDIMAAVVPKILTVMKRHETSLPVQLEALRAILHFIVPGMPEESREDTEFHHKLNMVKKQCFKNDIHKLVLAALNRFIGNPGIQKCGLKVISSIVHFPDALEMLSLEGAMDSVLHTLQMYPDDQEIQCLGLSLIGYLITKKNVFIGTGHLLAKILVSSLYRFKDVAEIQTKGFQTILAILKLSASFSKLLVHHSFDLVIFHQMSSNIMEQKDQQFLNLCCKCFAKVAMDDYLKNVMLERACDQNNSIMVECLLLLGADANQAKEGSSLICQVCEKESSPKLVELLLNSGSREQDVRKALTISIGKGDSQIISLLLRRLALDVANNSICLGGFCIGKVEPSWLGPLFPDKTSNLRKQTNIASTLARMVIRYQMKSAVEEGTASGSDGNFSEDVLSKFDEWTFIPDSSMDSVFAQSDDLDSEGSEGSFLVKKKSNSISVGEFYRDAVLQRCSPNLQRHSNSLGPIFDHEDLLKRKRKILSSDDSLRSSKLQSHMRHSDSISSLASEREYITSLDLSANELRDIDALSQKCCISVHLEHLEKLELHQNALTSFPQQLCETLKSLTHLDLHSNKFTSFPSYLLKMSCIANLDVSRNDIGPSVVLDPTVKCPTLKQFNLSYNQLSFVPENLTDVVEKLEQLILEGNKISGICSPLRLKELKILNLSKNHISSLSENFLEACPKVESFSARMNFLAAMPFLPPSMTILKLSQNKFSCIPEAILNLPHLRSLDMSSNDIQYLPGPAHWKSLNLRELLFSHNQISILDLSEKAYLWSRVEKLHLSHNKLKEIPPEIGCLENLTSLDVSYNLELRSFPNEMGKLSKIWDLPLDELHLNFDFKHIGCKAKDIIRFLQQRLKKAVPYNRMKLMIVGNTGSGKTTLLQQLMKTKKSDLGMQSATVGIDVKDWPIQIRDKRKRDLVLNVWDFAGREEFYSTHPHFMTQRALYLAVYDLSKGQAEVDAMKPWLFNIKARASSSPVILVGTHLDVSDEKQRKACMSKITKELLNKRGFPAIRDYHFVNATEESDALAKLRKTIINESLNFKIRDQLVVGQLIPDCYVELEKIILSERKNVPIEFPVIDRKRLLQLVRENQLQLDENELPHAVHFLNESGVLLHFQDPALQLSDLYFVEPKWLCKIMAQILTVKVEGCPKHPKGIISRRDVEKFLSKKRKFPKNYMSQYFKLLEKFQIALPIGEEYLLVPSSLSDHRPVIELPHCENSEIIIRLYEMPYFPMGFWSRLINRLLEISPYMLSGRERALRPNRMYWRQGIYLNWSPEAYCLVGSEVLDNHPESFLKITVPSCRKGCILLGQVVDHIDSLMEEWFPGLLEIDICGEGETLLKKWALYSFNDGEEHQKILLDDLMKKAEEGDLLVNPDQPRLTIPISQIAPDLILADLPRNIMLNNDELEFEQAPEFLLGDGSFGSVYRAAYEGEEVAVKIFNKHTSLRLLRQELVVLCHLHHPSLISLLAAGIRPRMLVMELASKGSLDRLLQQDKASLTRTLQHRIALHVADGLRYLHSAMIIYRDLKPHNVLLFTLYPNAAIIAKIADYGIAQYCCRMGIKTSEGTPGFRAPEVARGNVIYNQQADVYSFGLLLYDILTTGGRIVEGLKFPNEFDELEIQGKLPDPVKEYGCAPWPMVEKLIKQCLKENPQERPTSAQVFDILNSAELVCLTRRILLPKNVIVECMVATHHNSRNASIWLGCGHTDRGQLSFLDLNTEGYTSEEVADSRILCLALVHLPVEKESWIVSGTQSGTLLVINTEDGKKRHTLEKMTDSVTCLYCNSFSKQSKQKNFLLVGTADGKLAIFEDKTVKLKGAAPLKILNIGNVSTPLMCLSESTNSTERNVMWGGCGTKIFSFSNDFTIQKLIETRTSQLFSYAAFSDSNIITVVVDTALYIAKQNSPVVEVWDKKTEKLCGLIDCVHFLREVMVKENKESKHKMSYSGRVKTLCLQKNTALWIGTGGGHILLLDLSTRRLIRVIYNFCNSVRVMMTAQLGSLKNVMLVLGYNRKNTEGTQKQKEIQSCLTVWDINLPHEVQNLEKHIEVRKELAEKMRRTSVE
Assay Comment: Inhibition of recombinant GST-tagged human LRRK2 (970 to 2527 residues) catalytic domain expressed in baculovirus expression system by ADAPTA assay
pIC50: −log10 of the molar value.
Assay Readout: pIC50

>>> value_observed("C=CC(=O)Nc1ccc(C(=O)Nc2ccc(Nc3ncc4c(n3)N(C)c3ccc(C)cc3C(=O)N4C)cc2)cc1")
6.12
>>> value_observed("CCC(=O)Nc1ccc(C(=O)Nc2ccc(Nc3ncc4c(n3)N(C)c3ccc(C)cc3C(=O)N4C)cc2)cc1")
6.15

====

Measurement record for Serine/threonine-protein kinase PLK4 (Homo sapiens); quantity recorded: IC50.
Assay Readout: IC50 (nM)

>>> value_observed("CCC(=O)Nc1ccc(C(=O)Nc2ccc(Nc3ncc4c(n3)N(C)c3ccc(C)cc3C(=O)N4C)cc2)cc1")
82
>>> value_observed("C=CC(=O)Nc1ccc(C(=O)Nc2ccc(Nc3ncc4c(n3)N(C)c3ccc(C)cc3C(=O)N4C)cc2)cc1")
43.5
